The reported numbers originate from PubChem BioAssay (NCI).

Listed here are molecules together with their documented TGI.
# Test system: SNB-75 CNS
# experiment: NCI tumour cell line growth inhibition, 48 h

| molecule | TGI |
| --- | --- |
| c1ccc2c(c1)nc1n2CCSC1 | > 100 µM |
| COc1cc(C2SCC(=O)N2c2ccc(Oc3ccc(Cl)cc3)c(Cl)c2)cc(OC)c1OC (stereo unspecified) | 31.3 µM |
| CCOC(=O)C(/C=N\C(=S)Nc1ccc(OCC)cc1)=C(/O)c1ccccc1 | > 100 µM |
| C[n+]1c2ccccc2c(C(=O)Nc2ccc(S(=O)(=O)N=C(N)N)cc2)c2ccccc21 | > 100 µM |
| CCOC(=O)[C@H]1Nc2ccc(OC)cc2C2c3ccccc3CC21 (stereo partly specified) | > 100 µM |
| COC(=O)CCC1=C(C)/C(=C/c2[nH]c(-c3ccc[nH]3)cc2OC)N=C1C | 3.18 µM |

###

# Tested on: COLO 205 colon
# experiment: NCI tumour cell line growth inhibition, 48 h

| compound | tgt | TGI |
| --- | --- | --- |
| O=c1[nH]c2cc3[nH]c4ncccc4c(=O)c3cc2[nH]1 | COLO 205 colon | > 10 µM |
| Cn1cnc2c(sc3nc4ccccc4n32)c1=N | COLO 205 colon | > 100 µM |
| COC(=O)c1nc(N)[nH]c(=O)c1CCCCCc1c(C(=O)OC)nc(N)[nH]c1=O | COLO 205 colon | > 50 µM |
| COC(=O)c1c(-c2ccccc2)sc(-c2cccc3ccccc23)c1C(=O)OC | COLO 205 colon | > 100 µM |
| O=C([CH-]C(=O)C(F)(F)F)c1ccccc1.O=C([CH-]C(=O)C(F)(F)F)c1ccccc1.O=C([CH-]C(=O)C(F)(F)F)c1ccccc1.O=C([CH-]C(=O)C(F)(F)F)c1ccccc1.[Eu+3].c1ccncc1 | COLO 205 colon | > 100 µM |
| O=C1Nc2cccc3cc(NCC(O)CCl)cc1c23 (centres undefined) | COLO 205 colon | > 100 µM |
| NC(=O)c1ccc(C2C3=C(CCCC3=O)OC3=C2C(=O)c2ccccc2C3=O)cc1 (centres undefined) | COLO 205 colon | 1.41 µM |
| C=CC[C@@]1(C(=O)OC)[C@H](Sc2ccccc2)C1(C)C | COLO 205 colon | > 100 µM |
| COc1cc(/C=C2/N=C(c3ccccc3)N(C3=NNC4(C(=O)N3)c3ccccc3-c3ccccc34)NC2=O)ccc1O | COLO 205 colon | > 150 µg/mL |

###

# Test system: HL-60(TB) leukemia
# experiment: NCI tumour cell line growth inhibition, 48 h; in the data active means GI50 below about 0.43 µM; inactive means the rest
Classes used: active, inactive

| mol-smiles | category-label |
| --- | --- |
| COC(=O)C1=C(C(=O)OC)SC(=C(Cl)C(=S)Sc2ccccc2N)S1 | inactive |
| Cc1c2ccc(N(C)c3ccnc(Nc4cccc(S(N)(=O)=O)c4)n3)cc2nn1C | inactive |
| CN(C)C(=O)O[C@@H]1CN[C@@H](C#Cc2cc3ncnc(Nc4ccc(OCc5cccc(F)c5)c(Cl)c4)c3s2)C1 | inactive |
| O=C([CH-]C(=O)C(F)(F)F)c1ccccc1.O=C([CH-]C(=O)C(F)(F)F)c1ccccc1.O=C([CH-]C(=O)C(F)(F)F)c1ccccc1.O=C([CH-]C(=O)C(F)(F)F)c1ccccc1.[Eu+3].c1ccncc1 | inactive |
| COc1cc(/C=C2/N=C(c3ccccc3)N(C3=NNC4(C(=O)N3)c3ccccc3-c3ccccc34)NC2=O)ccc1O | inactive |
| N.N.N.N.N.N.O=N[O-].[Br-].[Co+3].[Co+3].[OH3+].[OH3+] | inactive |
| CC[C@@]1(O)C(=O)OCc2c1cc1n(c2=O)Cc2cc3cc(N)ccc3nc2-1 | active |
| Cc1cc(N/N=C/c2nc(-c3ccc(Cl)cc3)oc2C)c2cc(Cl)ccc2n1 | inactive |

###

# System: NCI/ADR-RES ovarian
# experiment: NCI tumour cell line growth inhibition, 48 h; in the data active = GI50 below about 0.43 µM; inactive = the rest
Classes used: yes (1) for active, no (0) for inactive

| compound | tgt | category-label |
| --- | --- | --- |
| NC(=O)c1ccc(C2C3=C(CCCC3=O)OC3=C2C(=O)c2ccccc2C3=O)cc1 (centres undefined) | NCI/ADR-RES ovarian | no (0) |
| N#C[C@@H]1C(n2ccc(N)nc2=O)O[C@H](CO)[C@H]1O (some centres undefined) | NCI/ADR-RES ovarian | no (0) |
| COc1cc2nc(-c3ccc(C(F)(F)F)cc3)cc(OCCCN3CCCCC3)c2cc1OC | NCI/ADR-RES ovarian | no (0) |
| CCC(c1cccc(O)c1)C(CC)c1cccc(O)c1 (centres undefined) | NCI/ADR-RES ovarian | no (0) |
| CCN(CC)CCCC(C)Nc1c2ccc(C)cc2nc2ccc(OC)cc12 (centres undefined) | NCI/ADR-RES ovarian | no (0) |
| COC(=O)CCCCCN=Cc1c(O)c(O)c(C(C)C)c2cc(C)c(-c3c(C)cc4c(C(C)C)c(O)c(O)c(C=NCCCCCC(=O)OC)c4c3O)c(O)c12 | NCI/ADR-RES ovarian | no (0) |
| Cc1cc(N/N=C/c2nc(-c3ccc(Cl)cc3)oc2C)c2cc(Cl)ccc2n1 | NCI/ADR-RES ovarian | no (0) |
| COc1cc(Cn2c(-c3nonc3N)nc3ccccc32)ccc1C | NCI/ADR-RES ovarian | yes (1) |
| COC(=O)C1=C(C(=O)OC)SC(=C(Cl)C(=S)Sc2ccccc2N)S1 | NCI/ADR-RES ovarian | no (0) |

###

# Test system: M19-MEL melanoma
# experiment: NCI tumour cell line growth inhibition, 48 h

| compound | tgt | TGI |
| --- | --- | --- |
| COc1cc(Br)c(C=Nc2cccc3ccc(OS(=O)(=O)c4cccc([N+](=O)[O-])c4)cc23)cc1OC | M19-MEL melanoma | > 100 µM |
| CCOC(=O)COS(=O)(=O)C(F)(F)F | M19-MEL melanoma | > 100 µM |
| CC1(Cl)CC2C(CC1Sc1nnnn1-c1ccccc1)C2(C)C (stereo not drawn) | M19-MEL melanoma | > 100 µM |

###

# Tested on: SK-MEL-2 melanoma
# experiment: NCI tumour cell line growth inhibition, 48 h; in the data active = GI50 below about 0.43 µM; inactive = the rest
Classes used: 1 = active, 0 = inactive

| compound | tgt | category-label |
| --- | --- | --- |
| COc1cc(S(=O)(=O)Nc2ccc(C3=NNC(c4ccccc4)C3)cc2)ccc1F (stereo not given) | SK-MEL-2 melanoma | 0 |
| O=[N+]([O-])c1ccc2c(c1)[O][Sn][O]2 | SK-MEL-2 melanoma | 0 |
| CSc1ccc(/C=C2\C=C(CC(=O)NCc3ccc(C(=O)c4ccccc4)cc3)c3cc(F)ccc32)cc1 | SK-MEL-2 melanoma | 1 |
| Cc1ccc(NC(=O)Cn2c(Br)nc3c2c(=O)n(C)c(=O)n3C)cc1 | SK-MEL-2 melanoma | 0 |
| COc1ccc(Cn2c(Cl)c(/C=C3/C(=O)Nc4ccccc43)c3cc(OC)c(C)cc32)cc1 | SK-MEL-2 melanoma | 0 |
| N#C[C@@H]1C(n2ccc(N)nc2=O)O[C@H](CO)[C@H]1O (stereo not given in full) | SK-MEL-2 melanoma | 0 |
| CCC(c1cccc(O)c1)C(CC)c1cccc(O)c1 (stereo not given) | SK-MEL-2 melanoma | 0 |
| C[C@]12CC[C@@H]3c4ccc(O)cc4C(O)C[C@H]3[C@@H]1CCC2=O (stereo not given in full) | SK-MEL-2 melanoma | 0 |
| Cc1cc(-c2nnc3n2CCCCC3)c(C)n1-c1ccc(Cl)c(Cl)c1 | SK-MEL-2 melanoma | 0 |
| COc1ccc(Cl)cc1Nc1nc(C(F)(F)F)ccc1C(=O)N/N=C/c1cc(OC)c(OC)c(OC)c1 | SK-MEL-2 melanoma | 0 |

###

# Test system: NCI-H226 lung
# experiment: NCI tumour cell line growth inhibition, 48 h; in the data active means GI50 below about 0.43 µM; inactive means the rest
Classes used: 1 (active), -1 (inactive)

| compound | category-label |
| --- | --- |
| COc1cc(S(=O)(=O)Nc2ccc(C3=NNC(c4ccccc4)C3)cc2)ccc1F (stereo not given) | -1 |
| C[C-](O)O.O/C(=C\[C-](O)c1ccccc1)c1ccccc1.O/C(=C\[C-](O)c1ccccc1)c1ccccc1.[Nd+3] (stereo not given) | -1 |
| CCN(CCNc1ccc(C)c2sc3ccccc3c(=O)c12)CC(C)(C)O | -1 |
| O=C1CCCN1CC#CCN1CCCC1 | -1 |
| Cc1cc(N/N=C/c2nc(-c3ccc(Cl)cc3)oc2C)c2cc(Cl)ccc2n1 | -1 |
| CC(=O)Nc1ccc(S(=O)(=O)NNC(=O)c2cccnc2Nc2ccc(Cl)cc2)cc1 | -1 |
| Cc1ccc(NC(=O)Cn2c(Br)nc3c2c(=O)n(C)c(=O)n3C)cc1 | -1 |
| NC(=O)c1ccc(C2C3=C(CCCC3=O)OC3=C2C(=O)c2ccccc2C3=O)cc1 (stereo not given) | -1 |
| Cn1cc(CNCC2CCN(c3ncc(C(=O)NO)cn3)CC2)c2ccccc21 | 1 |
| CN(C)C(=O)O[C@@H]1CN[C@@H](C#Cc2cc3ncnc(Nc4ccc(OCc5cccc(F)c5)c(Cl)c4)c3s2)C1 | -1 |
